Tested on: CCRF-CEM/VM1
Assay: XTT cytotoxicity assay, teniposide-resistant CCRF-CEM/VM1 cells
Type: cell-based, human
Conditions: XTT assay following 72 h inhibition; read-out: In vitro Cytotoxicities (IC50) CCRF-CEM/VM1
readout: IC50 (µM)
Numbers only, in µM.

Request the reported IC50 associated with CC1=CCC(C(C)=Cc2csc(C)n2)OC(=O)CC(O)C(C)(C)C(=O)C(C)C(O)C(C)CC=CC1 (stereo not shown) [[17]ddEpoB]
0.055

###

System: CCRF-CEM
Experiment: XTT cytotoxicity assay, CCRF-CEM cells
Assay type: cell-based, human
Settings: Homo sapiens, CCRF-CEM, 72 h, read-out: In Vitro Cytotoxicities (IC50) CCRF-CEM
readout: IC50 (nM)
Answers are plain numbers, in nM.

Recorded IC50 of C/C1=C/C[C@@H](/C(C)=C/c2csc(C)n2)OC(=O)C[C@H](O)C(C)(C)C(=O)[C@H](C)[C@@H](O)[C@@H](C)CCC1 [dEpoB, 12,13-desoxyepothilone B, reference compound] , please.
11

###

System: CCRF-CEM/Taxol
Assay: XTT cytotoxicity assay, taxol-resistant CCRF-CEM/Taxol cells
Type: cell-based, human
Conditions: Homo sapiens, CCRF-CEM, 72 h, read-out: In vitro Cytotoxicities (IC50) CCRF-CEM/Taxol
readout: IC50 (nM)
One number for each entry, in nM.

Looking for the measured IC50 of C/C1=C/C[C@@H](/C(C)=C/c2csc(C)n2)OC(=O)C[C@H](O)C(C)(C)C(=O)[C@H](C)[C@@H](O)[C@@H](C)CCC1 [dEpoB, 12,13-desoxyepothilone B, reference compound] , can you help?
7

###

Consider the following molecules; for each one, report its pIC50.
System: CCRF-CEM/VBL100
Assay: XTT cytotoxicity assay, vinblastine-resistant CCRF-CEM/VBL100 cells
Assay type: cell-based, human
Conditions: Homo sapiens, CCRF-CEM; Example 5 Table 1; 72 h inhibition; read-out: In vitro Cytotoxicities (IC50) C/VBL100
One number for each entry, as −log10 of the molar value.

>  <molecule>
C/C1=C/C[C@@H](/C(C)=C/c2csc(C)n2)OC(=O)C[C@H](O)C(C)(C)C(=O)[C@H](C)[C@@H](O)[C@@H](C)C[C@@H](O)[C@@H]1O [12 (dihydroxy)]

>  <pIC50>
4.00

$$$$
>  <molecule>
C/C1=C\[C@@H]2C[C@H](C)[C@H](O2)[C@@H](C)C(=O)C(C)(C)[C@@H](O)CC(=O)O[C@H](/C(C)=C/c2csc(C)n2)CC1O (some centres unmarked)

>  <pIC50>
5.06

$$$$
>  <molecule>
C/C1=C/C[C@@H](/C(C)=C/c2csc(C)n2)OC(=O)C[C@H](O)C(C)(C)C(=O)[C@H](C)[C@@H](O)[C@@H](C)CC2CC12 (some centres unmarked)

>  <pIC50>
6.85

$$$$
>  <molecule>
CC1=C/C[C@@H](/C(C)=C/c2csc(C)n2)OC(=O)C[C@H](O)C(C)(C)C(=O)[C@H](C)[C@@H](O)[C@@H](C)C\C=C\1 [Epo490, 10,11-dehydro-12,13-desoxyepothilone B]

>  <pIC50>
7.04

$$$$

Now let's try a different one.
Data request, read-out pIC50, for "CC1=C/C[C@@H](/C(C)=C/c2csc(CO)n2)OC(=O)C[C@H](O)C(C)(C)C(=O)[C@H](C)[C@@H](O)[C@@H](C)C\C=C\1"
6.69

###

Test system: CCRF-CEM/Taxol
Assay: XTT cytotoxicity assay, taxol-resistant CCRF-CEM/Taxol cells
Assay type: cell-based, human
Settings: Homo sapiens, CCRF-CEM; Example 5 Table 1; 72 h inhibition; read-out: In vitro Cytotoxicities (IC50) C/Taxol
Answer each item with its documented pIC50.
One number for each entry, as −log10 of the molar value.

Some entries whose results are on file:
>  <compound>
CC1=C/C[C@@H](/C(C)=C/c2csc(CO)n2)OC(=O)C[C@H](O)C(C)(C)C(=O)[C@H](C)[C@@H](O)[C@@H](C)C\C=C\1 [Compound 21-OH-Epo490]

>  <target of assay>
CCRF-CEM/Taxol

>  <readout>
pIC50

>  <observed measurement>
7.29

$$$$
>  <compound>
CC1=C/C[C@@H](/C(C)=C/c2csc(C)n2)OC(=O)C[C@H](O)C(C)(C)C(=O)[C@H](C)[C@@H](O)[C@@H](C)C\C=C\1 [Epo490, 10,11-dehydro-12,13-desoxyepothilone B]

>  <target of assay>
CCRF-CEM/Taxol

>  <readout>
pIC50

>  <observed measurement>
7.49

$$$$
>  <compound>
C/C1=C\[C@@H]2C[C@H](C)[C@H](O2)[C@@H](C)C(=O)C(C)(C)[C@@H](O)CC(=O)O[C@H](/C(C)=C/c2csc(C)n2)CC1O (stereo partly shown) [13 (THF macrocycle)]

>  <target of assay>
CCRF-CEM/Taxol

>  <readout>
pIC50

>  <observed measurement>
5.37

$$$$

Then there is this compound:
Would you mind telling me what pIC50 value was observed for C/C1=C/C[C@@H](/C(C)=C/c2csc(C)n2)OC(=O)C[C@H](O)C(C)(C)C(=O)[C@H](C)[C@@H](O)[C@@H](C)C[C@@H](O)[C@@H]1O [12 (dihydroxy)] ?
4.78

###

Test system: CCRF-CEM
Assay: XTT cytotoxicity assay, CCRF-CEM cells
Type: cell-based, human
Settings: Homo sapiens, CCRF-CEM, 72 h, read-out: In vitro Cytotoxicities (IC50) CCRF-CEM
readout: pIC50
Numbers only, as −log10 of the molar value.

Provide value of pIC50 for this record tested with CCRF-CEM: C/C1=C/C[C@@H](/C(C)=C/c2csc(C)n2)OC(=O)C[C@H](O)C(C)(C)C(=O)[C@H](C)[C@@H](O)[C@@H](C)CCC1 [dEpoB, 12,13-desoxyepothilone B, reference compound]
7.96

###

Test system: tubulin
Assay: Tubulin binding: formation of microtubules in the presence of the compounds
Type: biochemical
Conditions: Example 5 Table 1
readout: % Tubulin Binding (%)
Answers are plain numbers, in %.

Some solved cases for reference:
>  <compound>
CC1=CCC(C(C)=Cc2csc(C)n2)OC(=O)CC(O)C(C)(C)C(=O)C(C)C(O)C(C)CC=CC1 (stereo not shown) [[17]ddEpoB]

>  <readout units>
%

>  <% Tubulin Binding>
94

$$$$
>  <compound>
CC1=C/C[C@@H](/C(C)=C/c2csc(CO)n2)OC(=O)C[C@H](O)C(C)(C)C(=O)[C@H](C)[C@@H](O)[C@@H](C)C\C=C\1 [Compound 21-OH-Epo490]

>  <readout units>
%

>  <% Tubulin Binding>
77

$$$$
>  <compound>
CC1=C/C[C@@H](/C(C)=C/c2csc(C)n2)OC(=O)C[C@H](O)C(C)(C)C(=O)[C@H](C)[C@@H](O)[C@@H](C)C\C=C\1 [Epo490, 10,11-dehydro-12,13-desoxyepothilone B]

>  <readout units>
%

>  <% Tubulin Binding>
89

$$$$
>  <compound>
C/C1=C/C[C@@H](/C(C)=C/c2csc(C)n2)OC(=O)C[C@H](O)C(C)(C)C(=O)[C@H](C)[C@@H](O)[C@@H](C)CCC1 [dEpoB, 12,13-desoxyepothilone B, reference compound]

>  <readout units>
%

>  <% Tubulin Binding>
100

$$$$
>  <compound>
C/C1=C/C[C@@H](/C(C)=C/c2csc(C)n2)OC(=O)C[C@H](O)C(C)(C)C(=O)[C@H](C)[C@@H](O)[C@@H](C)C[C@@H](O)[C@@H]1O [12 (dihydroxy)]

>  <readout units>
%

>  <% Tubulin Binding>
31

$$$$

Now examine the next entry.
What % Tubulin Binding value was documented for this compound, C/C1=C/C[C@@H](/C(C)=C/c2csc(C)n2)OC(=O)C[C@H](O)C(C)(C)C(=O)[C@H](C)[C@@H](O)[C@@H](C)CC2CC12 (stereo partly shown) [15 (cyclopropyl)] ?
84

###

System: CCRF-CEM
Assay: XTT cytotoxicity assay, CCRF-CEM cells
Format: cell-based, human
Settings: XTT assay following 72 h inhibition; read-out: In vitro Cytotoxicities (IC50) CCRF-CEM
readout: pIC50
One number for each entry, as −log10 of the molar value.

pIC50 for CC1=CCC(C(C)=Cc2csc(C)n2)OC(=O)CC(O)C(C)(C)C(=O)C(C)C(O)C(C)CC=CC1 (stereo not shown) [[17]ddEpoB] ?
7.40

###

I'd appreciate it if you could supply IC50 values for the items below.
Tested on: CCRF-CEM
Assay: XTT cytotoxicity assay, CCRF-CEM cells
Type: cell-based, human
Conditions: Homo sapiens, CCRF-CEM; Example 5 Table 1; 72 h inhibition; read-out: In vitro Cytotoxicities (IC50) CCRF-CEM(C)
Give bare numbers, in nM.

Example entries begin here.
>  <compound>
C/C1=C\[C@@H]2C[C@H](C)[C@H](O2)[C@@H](C)C(=O)C(C)(C)[C@@H](O)CC(=O)O[C@H](/C(C)=C/c2csc(C)n2)CC1O (some centres unmarked)

>  <readout units>
nM

>  <IC50>
761

$$$$
>  <compound>
CC1=C/C[C@@H](/C(C)=C/c2csc(C)n2)OC(=O)C[C@H](O)C(C)(C)C(=O)[C@H](C)[C@@H](O)[C@@H](C)C\C=C\1 [Epo490, 10,11-dehydro-12,13-desoxyepothilone B]

>  <readout units>
nM

>  <IC50>
25

$$$$

I'm hoping you can list IC50 for every compound here, please.
1. C/C1=C/C[C@@H](/C(C)=C/c2csc(C)n2)OC(=O)C[C@H](O)C(C)(C)C(=O)[C@H](C)[C@@H](O)[C@@H](C)C[C@@H](O)[C@@H]1O [12 (dihydroxy)]
2. CC1=C/C[C@@H](/C(C)=C/c2csc(CO)n2)OC(=O)C[C@H](O)C(C)(C)C(=O)[C@H](C)[C@@H](O)[C@@H](C)C\C=C\1
3. C/C1=C/C[C@@H](/C(C)=C/c2csc(C)n2)OC(=O)C[C@H](O)C(C)(C)C(=O)[C@H](C)[C@@H](O)[C@@H](C)CC2CC12 (some centres unmarked)

[1000, 30, 77]
